System: Malme-3M
Test method notes: Growth inhibition of human MALME-3M cells incubated for 48 hrs by sulforhodamine B assay
Assay type: functional, cell-based
Stated conditions: read-out: GI50
Readout name: GI50 (nM)
Answer with a number only, understood to be in nM.

Study these solved cases before continuing.
Prompt: Could you tell me which GI50 is on file for O=C(Nc1cccc(-n2cc(-c3ccncc3)c(-c3cc(O)cc(Cl)c3)n2)c1)c1ccc(N2CCOCC2)c(C(F)(F)F)c1 ?
Completion: 1380

Prompt: What would you report for O=C(Nc1cccc(-n2cc(-c3ccncc3)c(-c3cc(O)cc(Cl)c3)n2)c1)Nc1ccc(Cl)c(C(F)(F)F)c1 ?
Completion: 2370

Prompt: What would you report for COc1cc(Cl)cc(-c2nn(-c3cccc(NC(=O)c4ccc(N5CCOCC5)c(C(F)(F)F)c4)c3)cc2-c2ccncc2)c1 ?
Completion: 2530

Prompt: What would you report for COc1cc(Cl)cc(-c2nn(-c3cccc(NC(=O)Nc4ccc(Cl)c(Cl)c4)c3)cc2-c2ccncc2)c1 ?
Completion: 2060

Query molecule follows.
Prompt: Could you tell me which GI50 is on file for COc1cc(Cl)cc(-c2nn(-c3cccc(NC(=O)Nc4ccc(Cl)c(C(F)(F)F)c4)c3)cc2-c2ccncc2)c1 ?
Completion: 1210
